Experiment: Aqueous solubility in different cyclodextrin solutions (excess compound, shaken 24 hours, HPLC)
Assay type: physicochemical
Settings: aqueous cyclodextrin solution, aqueous with cosolvent or surfactant or cyclodextrin, thermodynamic from solid, ACD 5 mg/ml, room temperature, read-out: Solubility in CD's solution (concentration of compound)
EXPERIMENTAL READOUT: solubility at 24 h (µg/mL)
Numbers only, in µg/mL.

Exam item: Quick one: give measured solubility at 24 h for Cc1cccc(COc2ccc(Sc3ccoc3C3NC(=O)NC3=O)cc2)c1 (stereo not shown)
Marked response: 37

----------
Assay: Aqueous solubility in different cyclodextrin solutions (excess compound, shaken 24 hours, HPLC)
Format: physicochemical
Conditions: aqueous cyclodextrin solution, water, thermodynamic from solid, HPBCD 0 mg/ml, room temperature, read-out: Solubility in CD's solution (concentration of compound)
I'd be grateful if you could share measured solubility at 24 h for these entries.

Cc1cccc(COc2ccc(Sc3ccoc3C3NC(=O)NC3=O)cc2)c1 (stereo not shown) | 26 µg/mL
COc1cccc(COc2ccc(Sc3ccoc3C3NC(=O)NC3=O)cc2)c1 (stereo not shown) | 23 µg/mL
Cc1ccccc1COc1ccc(Sc2ccoc2C2NC(=O)NC2=O)cc1 (stereo not shown) | 64 µg/mL

Consider the additional molecule presented here.
Exam item: Specify reported solubility at 24 h for the molecule shown: O=C1NC(=O)C(c2occc2Sc2ccc(OCc3cccc(C(F)(F)F)c3)cc2)N1 (stereo not shown)
Marked response: 138 µg/mL
